Measured PBM binding z-score accompanies every entry in the list below.
- System: RARb:RXRa (NR concentration 270 nM, RXRa partner concentration 90 nM)
- METHOD_SUMMARY: PBM binding z-score (relative to random genomic background probes); higher = stronger binding; sequences stand for … in GC…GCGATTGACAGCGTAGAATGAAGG
Reply: number alone, nothing else.

Field: example entries. Status: answers known.
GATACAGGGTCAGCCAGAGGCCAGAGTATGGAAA 4.19
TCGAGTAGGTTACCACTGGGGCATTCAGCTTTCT 0.833
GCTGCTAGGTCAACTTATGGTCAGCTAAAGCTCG 4.4

Summary: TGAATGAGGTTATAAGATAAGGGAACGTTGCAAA , RARb:RXRa (NR concentration 270 nM, RXRa partner concentration 90 nM), PBM binding z-score = 1.04

Summary: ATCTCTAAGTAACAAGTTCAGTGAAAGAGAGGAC , RARb:RXRa (NR concentration 270 nM, RXRa partner concentration 90 nM), PBM binding z-score = 1.57

Summary: ACTCGGAGGACAAAGGTCAAAGCTACGCCAGTGA , RARb:RXRa (NR concentration 270 nM, RXRa partner concentration 90 nM), PBM binding z-score = 5.24

Summary: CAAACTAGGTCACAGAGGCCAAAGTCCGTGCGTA , RARb:RXRa (NR concentration 270 nM, RXRa partner concentration 90 nM), PBM binding z-score = 4.23

Summary: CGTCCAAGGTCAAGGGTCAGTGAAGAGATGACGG , RARb:RXRa (NR concentration 270 nM, RXRa partner concentration 90 nM), PBM binding z-score = 5.81

Summary: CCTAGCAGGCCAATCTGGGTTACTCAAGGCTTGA , RARb:RXRa (NR concentration 270 nM, RXRa partner concentration 90 nM), PBM binding z-score = 0.268

Summary: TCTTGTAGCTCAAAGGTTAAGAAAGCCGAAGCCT , RARb:RXRa (NR concentration 270 nM, RXRa partner concentration 90 nM), PBM binding z-score = 1.61

Summary: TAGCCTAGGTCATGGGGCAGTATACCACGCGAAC , RARb:RXRa (NR concentration 270 nM, RXRa partner concentration 90 nM), PBM binding z-score = 3.79

Summary: AGAATGAGGTGATTAAGATCAGGGAATTGCGGTC , RARb:RXRa (NR concentration 270 nM, RXRa partner concentration 90 nM), PBM binding z-score = 0.268

----------
- Tested on: RARb:RXRa (NR concentration 270 nM, RXRa partner concentration 90 nM)
- METHOD_SUMMARY: PBM binding z-score (relative to random genomic background probes); higher = stronger binding; sequences stand for … in GC…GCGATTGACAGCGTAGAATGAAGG
Each record's class is read off its PBM binding z-score using these ranges: low (below 1), middle (1 to below 3), high (3 or more)

Assign a bin to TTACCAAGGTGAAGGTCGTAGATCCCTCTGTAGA middle

----------
- Test system: PPARg:RXRa IVT, anti-PPARg (NR concentration 270 nM, RXRa partner concentration 90 nM)
- METHOD_SUMMARY: PBM binding z-score (relative to random genomic background probes); higher = stronger binding; sequences stand for … in GC…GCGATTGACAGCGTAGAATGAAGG
ASSAY_READOUT: PBM binding z-score
Reply: number alone, nothing else.

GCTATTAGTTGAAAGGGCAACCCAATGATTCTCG 0.818
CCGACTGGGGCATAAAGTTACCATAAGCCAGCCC 1.79

Lab book: PBM binding z-score of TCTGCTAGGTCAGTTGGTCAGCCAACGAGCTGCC noted as 2.92

Lab book: PBM binding z-score of TCATATAGGTAAACGGTGAAAGTCGGTGTGGTAA noted as 3.34

Lab book: PBM binding z-score of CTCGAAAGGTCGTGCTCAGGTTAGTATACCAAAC noted as 1.77

Lab book: PBM binding z-score of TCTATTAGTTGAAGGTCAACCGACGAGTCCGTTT noted as 2.45

Lab book: PBM binding z-score of CCTAGTTGGTCCGGAGGTCACACACCGGATATGA noted as 1.77

Lab book: PBM binding z-score of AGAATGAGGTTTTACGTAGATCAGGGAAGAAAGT noted as -0.118

Lab book: PBM binding z-score of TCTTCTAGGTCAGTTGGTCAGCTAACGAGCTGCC noted as 6.42

----------
Measured PBM binding z-score accompanies every entry in the list below.
- Test system: FXR:RXRa (NR concentration 270 nM, RXRa partner concentration 90 nM)
- METHOD_SUMMARY: PBM binding z-score (relative to random genomic background probes); higher = stronger binding; sequences stand for … in GC…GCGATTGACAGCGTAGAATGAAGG
Reply: number alone, nothing else.

Field: example entries. Status: answers known.
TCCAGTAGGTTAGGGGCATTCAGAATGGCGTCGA 0.986
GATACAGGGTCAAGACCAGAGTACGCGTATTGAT 6.27
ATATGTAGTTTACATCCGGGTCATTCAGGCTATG 1.49
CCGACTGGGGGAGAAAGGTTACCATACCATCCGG 1.31
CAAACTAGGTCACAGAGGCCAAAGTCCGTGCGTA 4.93

Lab book: PBM binding z-score of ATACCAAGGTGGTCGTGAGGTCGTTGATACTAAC noted as 1.49

Lab book: PBM binding z-score of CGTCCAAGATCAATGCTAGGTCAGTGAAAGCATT noted as 0.162

----------
- Test system: PPARg:RXRa DBDmut IVT, anti-RXR (DBD mutation: RXRa K156A/R161A, NR concentration 270 nM, RXRa partner concentration 90 nM)
- METHOD_SUMMARY: PBM binding z-score (relative to random genomic background probes); higher = stronger binding; sequences stand for … in GC…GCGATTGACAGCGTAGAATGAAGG
Each record's class is read off its PBM binding z-score using these ranges: group A: < 1; group B: ≥ 1 and < 4; group C: ≥ 4

Consider the following illustrative entries.
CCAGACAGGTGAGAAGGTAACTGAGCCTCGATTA group A
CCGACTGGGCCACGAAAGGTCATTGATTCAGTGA group C
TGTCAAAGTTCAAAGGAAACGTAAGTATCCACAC group A
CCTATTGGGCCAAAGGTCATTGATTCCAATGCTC group C
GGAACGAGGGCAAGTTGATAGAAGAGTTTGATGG group B

Assign a bin to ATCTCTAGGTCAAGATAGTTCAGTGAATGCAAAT group C

Assign a bin to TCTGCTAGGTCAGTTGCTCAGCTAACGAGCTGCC group B

Assign a bin to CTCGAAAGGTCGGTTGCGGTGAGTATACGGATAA group A

Assign a bin to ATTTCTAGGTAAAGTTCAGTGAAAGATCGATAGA group C

----------
- Tested on: RARa homodimer (NR concentration 270 nM)
- METHOD_SUMMARY: PBM binding z-score (relative to random genomic background probes); higher = stronger binding; sequences stand for … in GC…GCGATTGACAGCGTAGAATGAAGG
Answer no (0) if PBM binding z-score is under 0.3, and yes (1) if it is 0.3 or more.

Consider the following illustrative entries.
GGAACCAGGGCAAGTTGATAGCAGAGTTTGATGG yes (1)
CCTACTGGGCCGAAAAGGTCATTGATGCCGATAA yes (1)

Could you tell me if the measured PBM binding z-score of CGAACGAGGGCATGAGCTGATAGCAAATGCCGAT reaches 0.3 or more? no (0)

Could you tell me if the measured PBM binding z-score of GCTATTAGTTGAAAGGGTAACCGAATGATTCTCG reaches 0.3 or more? yes (1)

Could you tell me if the measured PBM binding z-score of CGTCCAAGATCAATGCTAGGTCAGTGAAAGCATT reaches 0.3 or more? no (0)

----------
Measured PBM binding z-score accompanies every entry in the list below.
- Tested on: RARg:RXRa (NR concentration 270 nM, RXRa partner concentration 90 nM)
- METHOD_SUMMARY: PBM binding z-score (relative to random genomic background probes); higher = stronger binding; sequences stand for … in GC…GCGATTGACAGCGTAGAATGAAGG
Reply: number alone, nothing else.

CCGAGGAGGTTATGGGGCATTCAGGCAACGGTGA 1.42

Summary: ACTAGCAGGCCAAGTTTCGGTCACTCAAACAAAG , RARg:RXRa (NR concentration 270 nM, RXRa partner concentration 90 nM), PBM binding z-score = 1.68

Summary: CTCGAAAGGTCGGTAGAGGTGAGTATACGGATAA , RARg:RXRa (NR concentration 270 nM, RXRa partner concentration 90 nM), PBM binding z-score = 2.89

Summary: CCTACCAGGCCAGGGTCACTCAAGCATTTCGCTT , RARg:RXRa (NR concentration 270 nM, RXRa partner concentration 90 nM), PBM binding z-score = 3.13

Summary: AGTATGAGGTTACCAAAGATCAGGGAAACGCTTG , RARg:RXRa (NR concentration 270 nM, RXRa partner concentration 90 nM), PBM binding z-score = 2.17

Summary: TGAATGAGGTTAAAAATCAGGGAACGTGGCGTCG , RARg:RXRa (NR concentration 270 nM, RXRa partner concentration 90 nM), PBM binding z-score = 1.38

Summary: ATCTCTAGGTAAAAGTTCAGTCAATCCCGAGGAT , RARg:RXRa (NR concentration 270 nM, RXRa partner concentration 90 nM), PBM binding z-score = 2.1

Summary: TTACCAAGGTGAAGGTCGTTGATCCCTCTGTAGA , RARg:RXRa (NR concentration 270 nM, RXRa partner concentration 90 nM), PBM binding z-score = 1.29

Summary: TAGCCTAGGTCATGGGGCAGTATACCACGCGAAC , RARg:RXRa (NR concentration 270 nM, RXRa partner concentration 90 nM), PBM binding z-score = 4.3

Summary: GATACAGGGTCAAAGCCAGAGTACGCGTATTGAT , RARg:RXRa (NR concentration 270 nM, RXRa partner concentration 90 nM), PBM binding z-score = 5.42
